test: folding stability dG unfold from trypsin proteolysis; higher = more stable
Returns 1 if the recorded folding stability dG unfold is greater than or equal to 2 kcal/mol, and 0 otherwise.

See these solved cases before continuing.
[
  {
    "sequence_input": "SAGGSEKVKIEIPFRHPEDGEPIFPVRIEYEKPPNGDYKLDIEIDNFPPGMKPSPAAKDAIEEFIKSAGGSA [r2_7_TrROS]",
    "discrete_label": 0
  },
  {
    "sequence_input": "SAGGSADNIEFKFPGIEEVTVWPDKIMFKLPNGYYYVITINNIDEIEIIEVIPPVPPPPPEDPDDKSAGGSA [r15_393_TrROS]",
    "discrete_label": 1
  },
  {
    "sequence_input": "SAGMKPSPEGKTIITIDTSTGKVDVVFPDGKEFTLPFDSSSIEEIIKTIKEKLGYPPEVPFNIDEIEIASAG [r5_923_JUSTAS]",
    "discrete_label": 1
  },
  {
    "sequence_input": "SAGPPKKVEIPVRYPFDGWEIMIQIDPKDPKIEIHVHNPEHRERAREYARTIARIFQENGIPVEIEPWSAGG [r19_354_TrROS]",
    "discrete_label": 0
  },
  {
    "sequence_input": "SAGGSAGGSAGMVIERPDDKVLVILGYDPEKGKVYVAVYDPKTGEVRFKEFDNLEDEIKDSAGGSAGGSAGG [r17_300_TrMRF]",
    "discrete_label": 1
  }
]

### Prompt Is folding stability dG unfold at least 2 kcal/mol? Consider SAGGSAGGSAGGKPKVIVIEGMSLEEIKALLAELPEDVTIVVRLPDGSTRTLTVRLPEPSAGGSAGGSAGGS [r10_514_TrROS_Hall]
### Response 0

### Prompt Is folding stability dG unfold at least 2 kcal/mol? Consider SAGMVIVDPKTKKKITFDKESGEIYIEVDGKKKKIKLKPGEKVEIEIIEKDGKLIIKIKANGKIIEIEPSAG [r5_858_TrROS_Hall]
### Response 0
